# System: SNB-75
# experimentSummary: NCI tumour cell line growth inhibition, 48 h
Activity calls are given as the source filed them. Cut-off read from the data, not from the text of the source: active = GI50 up to about 1.1 µM and inactive = higher. Numbered stars: 1 amine (or outer) side, 2 acyl side, 3 side chain; on linkers, the order of the positions; unused ones are H or OH. Bridge positions count the residues as written; N and C are the ends. Square brackets hold non-standard residues; d marks the D form. Peptide text beside a SMILES is read from it. * marks the point of attachment. ξ: configuration not given here. X33 = O=C(C(CCCCNO[*:3])N[*:1])[*:2]; Fmoc = O=C(OCC1c2ccccc2-c2ccccc21)*; ξW = NC(Cc1c[nH]c2ccccc12)C(=O)O; ξP = O=C(O)C1CCCN1
Outcomes: TRUE (active), FALSE (inactive)

1) CC(=O)OCC1OC(N2C(=O)NC(=O)C3C=C4CCCCC4=CC32)CC1OC(C)=O (centres undefined)	FALSE
2) O=C(O)CN1C=C(C(=O)c2cc3ccccc3n2S(=O)(=O)c2ccccc2)CCC1	FALSE
3) CC(=O)CCC#Cc1ccccc1C(=O)C(C)=[N+]=[N-]	FALSE
4) S=C1Cc2c(-c3ccccc3)cc(-c3ccc(Cl)cc3)nc2-c2ccccc2N1	TRUE
5) Cc1cc2nc(N3C(=O)/C(=C/c4ccc(Oc5ccccc5)cc4)N=C3c3ccccc3)sc2cc1C	FALSE
6) COc1cc2c(cc1OC)[C@@H]([C@H](O)c1ccccc1)NCC2	FALSE
7) O=C(/N=C(\Nc1ccccc1)SCCS/C(=N/C(=O)c1cccs1)Nc1ccccc1)c1cccs1	FALSE
8) O=c1[nH]c(=O)n([C@@H]2C[C@H](CO)[C@H](O)C2)cc1/C=C/Br	FALSE
9) O=C(CCSC(CC(=O)c1ccc(Cl)cc1)c1ccc(Cl)cc1)Nc1ccc(Cl)cc1 (centres undefined)	FALSE
10) O=c1c2cc(I)ccc2nc(S)n1Cc1ccccc1	FALSE
11) CSc1nc(Br)nc2ncn(C3CC(Oc4ccc(C)cc4)C(COc4ccc(C)cc4)O3)c12 (centres undefined)	FALSE
12) O=C1C(Cl)C(c2ccccc2O)N1n1cnc2ccccc2c1=O (centres undefined)	FALSE
13) C=C(C)C1CC=C(C)C2(C1)OCC(C)(C)C(C)O2 (centres undefined)	FALSE
14) COc1cc(C2C(Cl)C(=O)N2NC(=O)Cc2ccccc2)ccc1O (centres undefined)	FALSE
15) CCOC(=O)/C(C#N)=C1/C(O)=C(C(=O)OC)C(C(=O)OC)=C1C(=O)OC.c1ccncc1	FALSE
16) N#CC1(C=O)c2ccccc2C=CN1C(=O)c1ccccc1 (centres undefined)	FALSE
17) N#CC(c1ccccc1)c1cccc2ccccc12 (centres undefined)	FALSE
18) CCOC(=O)C1=NN(c2ccccc2)C(=O)/C1=C\NC(=S)C(N)=S	FALSE
19) O=C(O)CSc1ccc([N+](=O)[O-])cc1[N+](=O)[O-]	FALSE
20) O=C(O)c1cc([N+](=O)[O-])cc2c(=O)c3cnccc3[nH]c12	FALSE
21) NC(=O)CNC(=O)C1CCCN1C(=O)C1CCCCNOC(=O)CC[C@@H](NC(=O)OCC2c3ccccc3-c3ccccc32)C(=O)NC(Cc2c[nH]c3ccccc23)C(=O)N1 (some centres undefined) (Fmoc-[dE][ξW][X33][ξP]G-NH2; ester 1-3)	FALSE
22) Nc1nc(N)nc(CCCCc2nc(N)nc(N)n2)n1	FALSE
23) COc1ccc([C@@H]2OC(=O)C3C2C(=O)O[C@H]3c2ccc(OC)cc2)cc1 (some centres undefined)	FALSE
24) O=S(=O)(CF)OCCCCOS(=O)(=O)CF	FALSE
